Test system: 883617-216-R-J1-PDC complex spheroid viability;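 further: exposure lasted seven days after three days of spheroid growth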
Assay: Anticancer human tumor 883617-216-R-J1-PDC patient-derived bladder carcinoma cell line growth inhibition
Details: second compound 0.316 µM; first compound 1 µM; stronger effect = lower value
Ranges used to classify viability, T/C: Low = under 40%, Medium = from 40% up to 70%, High = 70% and over

Req: GET /class?item= CC1(C)CCC(CN2CCN(c3ccc(C(=O)NS(=O)(=O)c4ccc(NCC5CCOCC5)c([N+](=O)[O-])c4)c(Oc4cnc5[nH]ccc5c4)c3)CC2)=C(c2ccc(Cl)cc2)C1 + NC1CC1c1ccc(-c2cccc(O)c2)cc1
Resp: High

Req: GET /class?item= Nc1ncn(C2CC(O)C(CO)O2)c(=O)n1 (centres undefined) + NC1CCC(NC2CC2c2ccccc2)CC1
Resp: Medium

Req: GET /class?item= COc1cc(Nc2ncc3c(n2)-c2ccc(Cl)cc2C(c2c(F)cccc2OC)=NC3)ccc1C(=O)O + NC1CCC(NC2CC2c2ccccc2)CC1
Resp: Medium

Req: GET /class?item= CC(C)c1c(-c2ccccc2)nc2c(C#N)c[nH]n2c1=O + NC1CC1c1ccc(-c2cccc(O)c2)cc1
Resp: High

Req: GET /class?item= O=C(c1cc(Cc2n[nH]c(=O)c3ccccc23)ccc1F)N1CCN(C(=O)C2CC2)CC1 + NC1CC1c1ccc(-c2cccc(O)c2)cc1
Resp: Medium

Req: GET /class?item= CC1COCCN1c1cc(-c2ccnn2C)c2ccnc(-c3ccn[nH]3)c2n1 (centres undefined) + NC1CC1c1ccc(-c2cccc(O)c2)cc1
Resp: Low

Req: GET /class?item= COc1ccc([C@@H](O)c2cc(-c3ncnc4cc(N5CCOCC5)ccc34)c(F)cc2Cl)nn1 + NC1CC1c1ccc(-c2cccc(O)c2)cc1
Resp: Medium

Req: GET /class?item= Nc1ncn(C2CC(O)C(CO)O2)c(=O)n1 (centres undefined) + NC1CC1c1ccc(-c2cccc(O)c2)cc1
Resp: Medium

Req: GET /class?item= CC1COCCN1c1cc(-c2ccnn2C)c2ccnc(-c3ccn[nH]3)c2n1 (centres undefined) + NC1CCC(NC2CC2c2ccccc2)CC1
Resp: Low

Req: GET /class?item= CC(C)c1c(-c2ccccc2)nc2c(C#N)c[nH]n2c1=O + NC1CCC(NC2CC2c2ccccc2)CC1
Resp: High

Req: GET /class?item= CC1COCCN1c1cc(C2(S(C)(=N)=O)CC2)nc(-c2ccnc3[nH]ccc23)n1 (centres undefined) + NC1CC1c1ccc(-c2cccc(O)c2)cc1
Resp: Low

Req: GET /class?item= O=C(C=Cn1cnc(-c2cc(C(F)(F)F)cc(C(F)(F)F)c2)n1)NNc1cnccn1 + NC1CCC(NC2CC2c2ccccc2)CC1
Resp: Low

Req: GET /class?item= CC1COCCN1c1cc(C2(S(C)(=N)=O)CC2)nc(-c2ccnc3[nH]ccc23)n1 (centres undefined) + NC1CCC(NC2CC2c2ccccc2)CC1
Resp: Medium

Req: GET /class?item= COc1cc(Nc2ncc3c(n2)-c2ccc(Cl)cc2C(c2c(F)cccc2OC)=NC3)ccc1C(=O)O + NC1CC1c1ccc(-c2cccc(O)c2)cc1
Resp: Low

Origin of the recorded values: PubChem BioAssay AID1918945
